Task for the reader: assign each of the following compounds its reported inhibition.
Experiment: IEC-6 cell viability reduction – luminescence, cytotoxicity control for KLF5 inhibitor project, primary screen (AID 1825);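 also: 0% = plate median of test compound wells and 100% = cytotoxic reference compound wells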
Details: IEC-6 cytotoxicity, at 5 µM, hits give high values
Out of some 290,000 compounds screened, about 2,300 (0.79%) were called active. Shown is part of a subset that was picked to be rich in actives.
Answer in %, number only, no unit symbol.

Q: Item under review: O=C(Nc1nnc(S(=O)(=O)N2CCOCC2)s1)c1cccc(Br)c1 . Reported inhibition?
A: 0.3

Q: May I ask what inhibition has been recorded for Cc1cc(Nc2ccc(Cl)cc2)nc(N2CCOCC2)n1 ?
A: 11.5

Q: Could you share which inhibition value was measured for C=C(C)Cn1c(C)cc(C)c(S(=O)(=O)c2ccccc2C)c1=O ?
A: -2.1

Q: Fill in: inhibition of COc1ccccc1C(C)NC(=O)Cc1ccsc1 (stereo not given) is ___
A: 1.9

Q: If you can, please state the reported inhibition value of COc1ccccc1/C=C1\SC(=O)N(CCC(=O)N(C)C2CCS(=O)(=O)C2)C1=O (stereo not given) .
A: -0.8

Q: Would you kindly share the measured inhibition for COc1ccc(NC(=O)c2cc(-c3ccc(C)cc3)on2)cc1 ?
A: 2.3

Q: Entry under review: CC(=O)NC(Cc1c[nH]c2ccccc12)C(=O)NCCc1ccccc1 (stereo not given) . Reported inhibition?
A: -0.3

Q: Give the measured inhibition of COC(=O)NC1(C(F)(F)F)NC(=O)N(C2CCCCC2)C1=O (stereo not given) .
A: 1.9

Q: Please give the measured inhibition for this compound: COc1cccc(N2C(=O)CN(Cc3ccccc3)C2=S)c1
A: 9.4

Q: For Cc1ccc(NS(=O)(=O)c2ccc(C)c(NC(=O)COc3ccc4ccccc4c3)c2)c(C)c1 , what is its reported inhibition?
A: -2

Q: Requested read-out: inhibition. Entry: Fc1ccc2[nH]c3c(N4CCN(Cc5ccc6c(c5)OCO6)CC4)ncnc3c2c1
A: 19.7

Q: // query inhibition value for entry CCC1CCCCN1C(=O)CSc1nc2c(c(=O)n1C)SC(C)C2 (stereo not given)
A: 0

Q: Which measured inhibition value corresponds to CCOC(=O)CNc1nc(Cl)nc(Nc2ccc(OC)cc2OC)n1 ?
A: 6.5

Q: Any idea what inhibition was measured for Cc1ccc(C(=O)CCC(=O)N(C)CC(=O)Nc2c(Cl)cccc2Cl)cc1 ?
A: 1.7

Q: What value of inhibition has been recorded for this entry: O=C(Nc1ccccc1Cl)Nc1cccc2cccnc12
A: 3.4

Q: Form field: reported inhibition of O=C(CNC(=O)c1cccs1)N/N=C/c1cccc(Br)c1
A: -5.3

Q: # lookup: inhibition of O=C(CN1CCN(Cc2ccccc2)CC1)Nc1ccc(F)c(F)c1
A: 6.7

Q: # get_value(readout='inhibition', item= COc1cc2c(cc1OC)CN(C(=O)c1ccc(S(=O)(=O)N3CCCCCC3)cc1)CC2 )
A: 0.2

Q: # get_value(readout='inhibition', item= O=C(/C=C/Sc1ncn[nH]1)c1ccc(Cl)cc1 )
A: 96.3

Q: Please give the measured inhibition for this compound: Cc1ccc(Nc2nc(N3CCOCC3)nc(N3CCOCC3)n2)cc1Cl
A: 68.1

Q: Look up inhibition for this compound: CC(C)OCCCNc1ncnc2c1[nH]c1ccc(F)cc12
A: 31.5

Q: Bench note: what inhibition did CCOc1ccccc1CNS(=O)(=O)c1cc(-c2cc(C)no2)ccc1C show?
A: 2.7

Q: Given the compound COc1ccc(Nc2ncc(C(=O)N3CCN(c4ccccc4OC)CC3)c3ccccc23)cc1 , what is its reported inhibition?
A: 11.7

Q: Name the reported inhibition value associated with the compound Cn1c(=O)[nH]c(=O)c2c1nc(N1CCN(C(c3ccccc3)c3ccccc3)CC1)n2CCO
A: -7.4

Q: Which inhibition value belongs to O=C1C(=O)N(CCCN2CCOCC2)C(c2ccc([N+](=O)[O-])cc2)/C1=C(\O)c1ccc2c(c1)OCCO2 (stereo not given) ?
A: -1.8

Q: Which value of inhibition has been reported for COc1ccccc1CNC(=O)C1CCN(S(=O)(=O)c2ccc3c(c2)CC(C)N3C(=O)C2CC2)CC1 (stereo not given) in the records?
A: 3.9

Q: Fill in the blank: the reported inhibition of CC(C)[C@@H]1COC(c2cccc(C3=N[C@H](C(C)C)CO3)c2)=N1 is ____.
A: 2.1

Q: If you can, please state the reported inhibition value of COc1ccc(CS(=O)/C(Cl)=C(/Cl)C(=O)Nc2ccc(OC)nc2)cc1 (stereo not given) .
A: 102

Q: Find the recorded inhibition belonging to COc1ccc(Nc2cc(Cl)ccc2C(=O)O)cn1 and report it.
A: -1.3

Q: Name the recorded inhibition for CCn1c(SCC(=O)NC2=NCCS2)nnc1C(C)NC(=O)c1ccccc1F (stereo not given) .
A: 0.1

Q: Consider the compound Cc1ccc(C(=O)/C=C/c2c(C)nn(-c3ccccc3)c2Cl)cc1 and give its measured inhibition.
A: 7.3

Q: Recorded inhibition for CCOc1ccc(S(=O)(=O)Nc2ccc(OC)nc2)cc1 , please?
A: 6.1

Q: Which measured inhibition value corresponds to Cc1cccc(-n2ncc(C#N)c2-n2cccc2)c1 ?
A: 1.1

Q: What does the record list as inhibition for CC1CN(C(=S)Nc2ccccc2F)CC(C)O1 (stereo not given) ?
A: 1.8

Q: // lookup inhibition for O=C(CSc1ncn[nH]1)N/N=C/c1ccc(F)cc1
A: 2.8

Q: # inhibition lookup, item COc1ccc(Oc2cn[nH]c2-c2ccc(OC)cc2O)cc1
A: 0

Q: Reported inhibition for CCCCCCn1c(CN2CCCCC2)nc2c1c(=O)n(C)c(=O)n2C : what is it?
A: -2.7

Q: Request the reported inhibition associated with CC(=O)N(c1ccc2oc(=O)sc2c1)S(=O)(=O)c1ccc(C)cc1
A: -2.8

Q: What does the data say about its inhibition? Entry: CCCCCCCCn1c2c(c(=N)c3c1CCC3)CCCC2
A: 47.1

Q: Value lookup for inhibition; key = O=C(NC1(C(F)(F)F)NC(=O)N(C2CCCCC2)C1=O)c1ccco1 (stereo not given)
A: 3.5

Q: Dear colleague, I am looking for the recorded inhibition of the following compound: Cc1cc(-c2ccc(C)c(S(=O)(=O)NCCCN(Cc3ccccc3)C(C)C)c2)on1
A: 6.1

Q: Requested field: inhibition. Item: COc1ccc(C2=NOC(C(=O)NCc3ccco3)C2)cc1OC (stereo not given)
A: 43.3

Q: // inhibition lookup, key: O=S(=O)(c1ccc(Br)cc1)n1ccc2ccccc21
A: 3.2

Q: Quick check: inhibition of COc1ccc(NC(=O)/C(Cl)=C(/Cl)S(=O)Cc2ccc(C)cc2)cn1 (stereo not given) ?
A: 99.6

Q: Suppose we examine the compound COc1cc(OC)c(OC)cc1/C=N/Nc1ncnc2c1[nH]c1ccc(C)cc12 ; what inhibition value has been reported?
A: -4.4

----------
Assay: IEC-6 cell viability reduction – luminescence, cytotoxicity control for KLF5 inhibitor project, primary screen (AID 1825);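 also: 0% = plate median of test compound wells and 100% = cytotoxic reference compound wells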
Conditions: IEC-6 cytotoxicity, at 5 µM, hits give high values
In all, about 290,000 compounds went through this assay and about 2,300 (0.79%) were called active. For the sample, actives were picked, then their nearest neighbours and some compounds at random.
measure_name: inhibition (%)
Numeric answer only, unit % assumed.

Q: Quick one: inhibition for Cc1cc(Cl)ccc1C(=O)C1CCCN(C(=O)c2nonc2C)C1 (stereo unspecified) ?
A: -1.1

Q: Given the compound O=S(=O)(NCCc1ccc(Cl)cc1)c1cccs1 , what is its reported inhibition?
A: 6.4

Q: Look at this compound and give its reported inhibition. CC(=O)NCCNC(=O)c1cc(-c2cccc3ccccc23)nc2ccccc12
A: 4.3

Q: So what does the record say about inhibition for O=S(=O)(NC1CCCC1)c1ccc(-n2cnnn2)cc1 ?
A: -0.4

Q: Quick one: inhibition of O=C(c1ccccc1F)N(Cc1ccccc1)Cc1ccccc1 ?
A: -1.4

Q: Which inhibition is reported for this compound? Cc1cc2c(cc1S(=O)(=O)CCC(=O)NCc1ccccc1)OCC(=O)N2
A: 11

Q: Quick one: inhibition for Cc1nn(CC(=O)N2CCCCC2)c(=O)c2nn(-c3ccccc3)c(C)c12 ?
A: -5.3

Q: I have this compound here, Cc1ccc(N2CC(C(=O)NCCS(=O)(=O)N3CCN(c4ccccc4)CC3)CC2=O)cc1 (stereo unspecified) , and I need its recorded inhibition.
A: -4.2

Q: Which inhibition value is on record for COc1ccc(C)cc1Nc1nc(C)nc2c1oc1ccccc12 ?
A: 34.1

Q: Quick check: inhibition of CC(C)[C@@H](C(=O)O)N(Cc1cccc(CN([C@H](C(=O)O)C(C)C)S(C)(=O)=O)c1)S(C)(=O)=O ?
A: -3.4

Q: Can you share its inhibition? I mean this compound: COc1ccccc1Nc1ncnc2c1oc1ccccc12
A: -0.2

----------
Assay: IEC-6 cell viability reduction – luminescence, cytotoxicity control for KLF5 inhibitor project, primary screen (AID 1825);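 also: 0% = plate median of test compound wells and 100% = cytotoxic reference compound wells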
Conditions: IEC-6 cytotoxicity, at 5 µM, hits give high values
Screen size: about 290,000 compounds; about 2,300 (0.79%) were called active. The list comes from a sample in which actives are over-represented; it also holds close analogues and randomly drawn compounds.
Would you mind telling me the reported inhibition of each entry?
Give the number; % is assumed, so skip it.

Q: Query (compound): O=C(Nc1nc2ccc([N+](=O)[O-])cc2s1)c1ccc(S(=O)(=O)N2CCCc3ccccc32)cc1 ; field requested: inhibition
A: 2.9

Q: Would you kindly share the measured inhibition for O=C(NC(Nc1nc2ccc([N+](=O)[O-])cc2s1)(C(F)(F)F)C(F)(F)F)c1ccccc1 ?
A: 28

Q: Which value of inhibition has been reported for CC(C)(C)c1cc2cccnc2n1Cc1cccc(F)c1 in the records?
A: -9.9

Q: Quick one: inhibition for CN(NC(=O)c1ccccc1)c1nc2ccccc2nc1C(F)(F)F ?
A: -0.3

Q: I have this compound here, Cc1ccccc1N1CC(C(=O)Nc2nnc(SCCC3OCCO3)s2)CC1=O (stereo not given) , and I need its recorded inhibition.
A: -3.4

Q: Recorded inhibition for CCOc1ccc(NC(=O)CC(Cc2ccc(Cl)cc2)C(=O)O)cc1 (stereo not given) , please?
A: 5.3

Q: Could you tell me which inhibition is on file for CSc1nc(N(C)NC(=O)c2cccc(C)c2)c2ccccc2n1 ?
A: 94.6

Q: Query (compound): CN(NC(=O)c1ccccc1F)c1nc(C(F)(F)F)nc2ccccc12 ; field requested: inhibition
A: 83.3

Q: Would you mind telling me what inhibition value was observed for CC(C)c1cc(C(=O)N/N=C/c2ccoc2)c(O)c(C(C)C)c1 ?
A: -1.3

Q: # input compound: COc1ccc(C(=O)NN(C)c2nc(-c3ccccc3)cc(C)c2S(C)(=O)=O)cc1 ; wanted: its inhibition
A: 1
